# measured_target: Complement factor D (Homo sapiens, UniProt P00746)
# Sequence (P00746 whole entry, the tested form may be a part): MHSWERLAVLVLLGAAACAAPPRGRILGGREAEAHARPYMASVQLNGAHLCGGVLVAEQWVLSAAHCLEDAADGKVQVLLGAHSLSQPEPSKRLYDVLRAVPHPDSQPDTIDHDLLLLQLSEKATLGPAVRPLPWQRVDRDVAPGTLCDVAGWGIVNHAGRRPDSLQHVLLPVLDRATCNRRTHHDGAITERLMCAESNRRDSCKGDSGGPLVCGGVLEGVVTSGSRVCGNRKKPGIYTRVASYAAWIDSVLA

sample_smiles	Kd
NC(=O)c1cc2cc(OCc3ccccc3)ccc2[nH]1	> 30 µM

====

# solubility thermodynamic at 16 h per entry
# test: Equilibrium solubility in pH 6.8 potassium phosphate buffer incubated for 16 hrs by shake flask method
# Type: physicochemical
experimental_endpoint: solubility thermodynamic at 16 h

sample_smiles	experimental_endpoint	test_result
COc1ccc(NC(=O)N[C@@H](C)c2ccccc2OC)cc1OCCCC(C)C	solubility thermodynamic at 16 h	≤ 4 µM
COc1cc(C(=O)O)c(NC(=O)N[C@@H](C)c2ccccc2)cc1OCCCC(C)C	solubility thermodynamic at 16 h	728 µM
COc1ccc(NC(=O)N[C@@H](C)c2ccccc2)cc1OCCCC(C)C	solubility thermodynamic at 16 h	< 4 µM
CCCCCCOc1cc(NC(=O)N[C@@H](C)c2ccccc2)ccc1OC	solubility thermodynamic at 16 h	< 4 µM

====

# measured_target: Nitric oxide synthase, inducible (Mus musculus)
# Sequence (P29477 whole entry): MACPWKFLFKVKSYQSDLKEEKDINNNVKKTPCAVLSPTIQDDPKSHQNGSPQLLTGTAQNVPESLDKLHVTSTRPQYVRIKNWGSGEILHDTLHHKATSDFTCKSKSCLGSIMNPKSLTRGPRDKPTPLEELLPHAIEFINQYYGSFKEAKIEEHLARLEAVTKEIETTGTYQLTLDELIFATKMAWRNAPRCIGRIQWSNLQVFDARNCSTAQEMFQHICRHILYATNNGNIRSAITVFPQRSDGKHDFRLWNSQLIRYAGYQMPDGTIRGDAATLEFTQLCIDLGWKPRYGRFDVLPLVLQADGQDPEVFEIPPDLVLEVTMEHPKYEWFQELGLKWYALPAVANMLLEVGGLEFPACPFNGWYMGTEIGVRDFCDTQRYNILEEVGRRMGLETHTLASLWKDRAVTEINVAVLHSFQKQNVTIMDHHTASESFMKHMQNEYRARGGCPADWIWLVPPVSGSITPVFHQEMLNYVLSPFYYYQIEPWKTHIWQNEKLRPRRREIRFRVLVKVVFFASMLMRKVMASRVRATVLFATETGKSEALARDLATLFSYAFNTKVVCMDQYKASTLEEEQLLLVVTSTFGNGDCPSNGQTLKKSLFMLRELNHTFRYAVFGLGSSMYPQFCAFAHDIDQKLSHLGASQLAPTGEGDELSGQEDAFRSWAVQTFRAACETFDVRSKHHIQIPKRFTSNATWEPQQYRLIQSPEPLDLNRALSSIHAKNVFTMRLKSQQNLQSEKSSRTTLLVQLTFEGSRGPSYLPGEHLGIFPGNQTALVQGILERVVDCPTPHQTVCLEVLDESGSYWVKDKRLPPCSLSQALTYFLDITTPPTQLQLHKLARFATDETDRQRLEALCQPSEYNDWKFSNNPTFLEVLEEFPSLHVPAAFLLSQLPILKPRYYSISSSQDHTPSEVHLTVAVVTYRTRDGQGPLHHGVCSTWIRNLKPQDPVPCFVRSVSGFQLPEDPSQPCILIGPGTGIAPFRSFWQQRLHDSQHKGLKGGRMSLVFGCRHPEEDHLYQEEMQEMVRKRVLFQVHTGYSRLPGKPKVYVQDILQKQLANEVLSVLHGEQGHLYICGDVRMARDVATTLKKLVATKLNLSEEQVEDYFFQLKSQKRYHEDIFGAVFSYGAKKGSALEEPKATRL
# test: Inhibition of LPS/IFN-gamma induced NO-dependent iNOS activity in mouse RAW 264.7 cells incubated for 16 hrs by Griess reagent based assay
pIC50: −log10 of the molar value.
experimental_endpoint: pIC50

sample_smiles	measured_target	test_result
O=C(CCC/C=C\C[C@@H]1[C@@H](CC[C@@H](O)CCc2ccccc2)[C@H](O)C[C@@H]1O)OC(CO[N+](=O)[O-])CO[N+](=O)[O-]	Nitric oxide synthase, inducible (Mus musculus)	4.26

====

# measured_target: Complement C5 (Homo sapiens, UniProt P01031)
# Sequence (P01031 19-673 limits assumed): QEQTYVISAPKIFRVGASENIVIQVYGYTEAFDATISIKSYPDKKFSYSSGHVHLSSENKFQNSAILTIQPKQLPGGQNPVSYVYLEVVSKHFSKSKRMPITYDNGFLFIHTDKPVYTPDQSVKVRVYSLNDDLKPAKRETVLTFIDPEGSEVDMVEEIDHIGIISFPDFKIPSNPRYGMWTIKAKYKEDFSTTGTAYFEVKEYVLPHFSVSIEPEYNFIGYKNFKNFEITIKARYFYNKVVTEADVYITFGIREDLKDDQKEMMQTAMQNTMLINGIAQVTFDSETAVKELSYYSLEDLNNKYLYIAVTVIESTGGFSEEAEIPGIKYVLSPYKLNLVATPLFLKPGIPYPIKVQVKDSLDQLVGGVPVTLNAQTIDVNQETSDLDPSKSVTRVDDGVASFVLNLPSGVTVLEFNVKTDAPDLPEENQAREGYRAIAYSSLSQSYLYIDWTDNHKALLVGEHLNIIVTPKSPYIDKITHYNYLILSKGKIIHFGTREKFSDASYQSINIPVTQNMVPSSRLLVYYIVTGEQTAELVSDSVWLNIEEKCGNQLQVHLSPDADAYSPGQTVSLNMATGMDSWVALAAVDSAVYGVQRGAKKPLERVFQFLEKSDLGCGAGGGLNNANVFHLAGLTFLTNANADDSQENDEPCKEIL
# Sequence (P01031 678-1676 limits assumed): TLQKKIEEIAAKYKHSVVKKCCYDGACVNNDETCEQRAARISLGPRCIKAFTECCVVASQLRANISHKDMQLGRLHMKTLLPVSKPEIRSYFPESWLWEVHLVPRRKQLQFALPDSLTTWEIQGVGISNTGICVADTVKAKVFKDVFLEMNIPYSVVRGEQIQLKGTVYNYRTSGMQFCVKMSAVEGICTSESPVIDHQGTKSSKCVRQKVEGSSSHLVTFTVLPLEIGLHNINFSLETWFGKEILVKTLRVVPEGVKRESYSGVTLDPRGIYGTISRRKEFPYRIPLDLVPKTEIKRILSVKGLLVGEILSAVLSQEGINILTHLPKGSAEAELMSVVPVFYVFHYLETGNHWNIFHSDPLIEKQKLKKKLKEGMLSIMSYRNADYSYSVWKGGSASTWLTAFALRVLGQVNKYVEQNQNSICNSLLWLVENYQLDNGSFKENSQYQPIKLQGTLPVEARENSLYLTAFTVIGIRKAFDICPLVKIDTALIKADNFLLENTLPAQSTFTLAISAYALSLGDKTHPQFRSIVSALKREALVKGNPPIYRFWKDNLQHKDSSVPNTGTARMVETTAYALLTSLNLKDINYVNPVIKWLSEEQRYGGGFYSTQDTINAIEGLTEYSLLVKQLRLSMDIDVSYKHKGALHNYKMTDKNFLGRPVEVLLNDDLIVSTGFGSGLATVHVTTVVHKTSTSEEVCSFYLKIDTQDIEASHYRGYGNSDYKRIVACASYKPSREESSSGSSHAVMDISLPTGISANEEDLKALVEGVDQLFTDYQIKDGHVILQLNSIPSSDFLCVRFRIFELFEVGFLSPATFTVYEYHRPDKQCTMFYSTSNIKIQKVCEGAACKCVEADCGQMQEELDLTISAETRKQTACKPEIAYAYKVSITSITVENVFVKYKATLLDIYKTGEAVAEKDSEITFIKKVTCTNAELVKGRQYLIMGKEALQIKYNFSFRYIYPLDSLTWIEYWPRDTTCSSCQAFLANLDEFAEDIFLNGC
# test: Inhibition of C5 complement protein in 2% human serum incubated for 15 mins

sample_smiles	IC50
CCCCCCOc1cc(NC(=O)N[C@@H](C)c2ccccc2)ccc1OC	210 nM
COc1ccc(NC(=O)N[C@@H](C)c2ccccc2OC)cc1OCCCC(C)C	≤ 5 nM
COc1cc(C(=O)O)c(NC(=O)N[C@@H](C)c2ccccc2)cc1OCCCC(C)C	620 nM
COc1ccc(NC(=O)N[C@@H](C)c2ccccc2)cc1OCCCC(C)C	440 nM

====

# measured_target: Complement factor D (Homo sapiens)
# test: Inhibition of recombinant human CFD catalytic domain (G24 to A253 residues) expressed in Escherichia coli (Rosetta) using Z-Lys-thiobenzyl and 2,4-dinitrobenzenesulfonyl-2,7-[…]-fluorecein as substrate preincubated for 1 hr followed by substrate addition by spectrofluorimetric method
pIC50: −log10 of the molar value.

sample_smiles	measured_target	pIC50
COc1ccc(CCNC(=O)[C@@H]2CCCN2C(=O)NCc2cccc3ccccc23)cc1	Complement factor D (Homo sapiens)	< 4.52
